Ref: paper PMC4336329

biological target: human ether-à-go-go-related gene (hERG) potassium channel (human, UniProt Q12809); assay: primary screen, population patch clamp on CHO cells stably expressing hERG; higher = less effect of the substance;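 note: peak tail current of the secondary pulse compared with the same well before compound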
Sequence (Q12809 whole entry, looked up): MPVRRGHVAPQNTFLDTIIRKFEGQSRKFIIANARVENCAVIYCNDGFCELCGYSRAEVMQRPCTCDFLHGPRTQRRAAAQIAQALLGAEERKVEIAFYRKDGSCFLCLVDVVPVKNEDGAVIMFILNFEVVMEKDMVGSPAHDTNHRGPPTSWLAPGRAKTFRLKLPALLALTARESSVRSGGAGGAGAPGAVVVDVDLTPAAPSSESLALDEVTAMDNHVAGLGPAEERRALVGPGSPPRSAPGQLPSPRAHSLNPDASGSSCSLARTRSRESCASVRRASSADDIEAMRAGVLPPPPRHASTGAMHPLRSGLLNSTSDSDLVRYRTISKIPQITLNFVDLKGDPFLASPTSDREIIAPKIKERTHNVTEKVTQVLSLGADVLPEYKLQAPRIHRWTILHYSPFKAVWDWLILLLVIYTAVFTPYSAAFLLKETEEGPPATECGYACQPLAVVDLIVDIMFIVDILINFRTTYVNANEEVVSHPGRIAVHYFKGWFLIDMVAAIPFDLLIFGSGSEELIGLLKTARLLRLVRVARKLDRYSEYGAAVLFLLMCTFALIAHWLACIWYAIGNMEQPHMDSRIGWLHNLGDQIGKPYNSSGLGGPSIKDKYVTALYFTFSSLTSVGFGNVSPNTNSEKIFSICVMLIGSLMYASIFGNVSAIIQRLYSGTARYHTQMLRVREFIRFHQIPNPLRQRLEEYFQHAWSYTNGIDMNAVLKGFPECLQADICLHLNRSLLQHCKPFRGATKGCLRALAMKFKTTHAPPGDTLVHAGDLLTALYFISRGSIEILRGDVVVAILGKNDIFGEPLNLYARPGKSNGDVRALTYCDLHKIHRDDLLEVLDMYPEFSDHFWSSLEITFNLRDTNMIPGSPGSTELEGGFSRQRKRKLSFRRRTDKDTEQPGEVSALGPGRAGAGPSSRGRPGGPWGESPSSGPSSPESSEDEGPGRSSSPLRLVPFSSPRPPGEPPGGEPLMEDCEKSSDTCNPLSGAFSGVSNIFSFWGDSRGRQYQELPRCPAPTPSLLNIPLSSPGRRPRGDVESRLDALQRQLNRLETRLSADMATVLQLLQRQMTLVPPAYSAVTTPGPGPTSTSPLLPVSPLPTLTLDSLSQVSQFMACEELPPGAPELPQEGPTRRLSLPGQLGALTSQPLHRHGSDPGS
Hit rate of the full screen: of about 310,000 compounds, about 14,000 (4.5%) showed an effect of 50% or more. The effect is printed as a negative number. The full list was thinned out, with strong results kept by preference.
Readout Label: hERG current change (%, negative = inhibition) at 10uM (%)
Could you give me the number in %? Just the number is fine.

Measured hERG current change (%, negative = inhibition) at 10uM of COc1ccc(C(=O)NCC(=O)N2CC=C(c3ccccc3)CC2)cc1OC : -37.9

Measured hERG current change (%, negative = inhibition) at 10uM of Cc1ccc2nc(N(CCCN(C)C)C(=O)c3ccco3)sc2c1.Cl : -65.4

Measured hERG current change (%, negative = inhibition) at 10uM of CC(C)(C)NC(=O)C(c1ccc(O)cc1)N(C(=O)CCC(=O)Nc1nccs1)c1cccc(F)c1 (stereo not drawn) : 16.8

Measured hERG current change (%, negative = inhibition) at 10uM of Cc1ccc2nc(N(CCN(C)C)C(=O)c3cc(Cl)sc3Cl)sc2c1.Cl : 7.55

---
Measured hERG current change (%, negative = inhibition) at 10uM of CCN(CC)CCN(C(=O)c1cc2ccccc2cc1OC)c1nc2ccc(OC)cc2s1.Cl : -13.4

Measured hERG current change (%, negative = inhibition) at 10uM of CN(C)CCN(C(=O)c1cc(Cl)sc1Cl)c1nc2ccc(F)cc2s1.Cl : -67.3

Measured hERG current change (%, negative = inhibition) at 10uM of Cc1ccc(C(=O)Nc2ccc(NC(=O)c3ccco3)c(C)c2)cc1 : 14.7

Measured hERG current change (%, negative = inhibition) at 10uM of CN(C)c1cccc(NC(=O)c2ccco2)c1 : -73.3

Measured hERG current change (%, negative = inhibition) at 10uM of Cc1cccc(C(=O)NCC(=O)N2CC=C(c3ccccc3)CC2)c1 : -40.9

Measured hERG current change (%, negative = inhibition) at 10uM of CCN(C(=O)CN1CCOCC1)c1c(N)n(Cc2ccccc2)c(=O)[nH]c1=O : 22.2

Measured hERG current change (%, negative = inhibition) at 10uM of Clc1ccc(-c2ccnc(Oc3ccc4ccccc4c3)n2)cc1 : 7.34

Measured hERG current change (%, negative = inhibition) at 10uM of CCN(CC)CCN(C(=O)c1cc2ccccc2cc1OC)c1nc2ccc(F)cc2s1.Cl : -11.8

Measured hERG current change (%, negative = inhibition) at 10uM of CCOc1ccc(C(=O)NCC(=O)N2CCc3ccccc3C2)cc1OCC : 4.5

###

target: human ether-à-go-go-related gene (hERG) potassium channel (human, UniProt Q12809); test: primary screen, population patch clamp on CHO cells stably expressing hERG; higher = less effect of the substance;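 note: peak tail current of the secondary pulse compared with the same well before compound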
Out of some 310,000 compounds screened, about 14,000 (4.5%) showed an effect of 50% or more. The effect is printed as a negative number. The entries come from a sample that favours strong results as a whole.
Recorded hERG current change (%, negative = inhibition) at 10uM split into classes class A: < -60%; class B: ≥ -60% and < 10%; class C: ≥ 10%

Reference set (2 entries):
Hi, small favor: classify CCOC(=O)COc1cc(OCC(=O)OCC)c2c(=O)cc(-c3ccccc3)oc2c1 by its hERG current change (%, negative = inhibition) at 10uM when you get a moment.
class A

Hi, small favor: classify CCOc1ccccc1C1C(C#N)=C(N)Oc2cc(N)ccc21 (stereo not drawn) by its hERG current change (%, negative = inhibition) at 10uM when you get a moment.
class B

---
Hi, small favor: classify COCC1CCCCN1C(=O)c1cccc(OC2CCN(S(C)(=O)=O)CC2)c1 (stereo not drawn) by its hERG current change (%, negative = inhibition) at 10uM when you get a moment.
class C

Hi, small favor: classify COc1ccc(N(C(=O)c2cccnc2)S(=O)(=O)c2ccc3c4c(cccc24)C(=O)N3C)cc1 by its hERG current change (%, negative = inhibition) at 10uM when you get a moment.
class C

Hi, small favor: classify O=C(C1CCN(S(=O)(=O)c2cccc3nsnc23)CC1)N1CCCCC1 by its hERG current change (%, negative = inhibition) at 10uM when you get a moment.
class B

Hi, small favor: classify COc1ccc(CNC(=O)C2CCCN(c3nccc(C)n3)C2)cc1 (stereo not drawn) by its hERG current change (%, negative = inhibition) at 10uM when you get a moment.
class B

Hi, small favor: classify CCC1Oc2ccccc2N(CC(=O)NCCCN2CCCC2)C1=O (stereo not drawn) by its hERG current change (%, negative = inhibition) at 10uM when you get a moment.
class C

Hi, small favor: classify COc1ccc(CNC(=O)C2CCCN(Cc3nc(-c4cccc(C)c4)oc3C)C2)cc1 (stereo not drawn) by its hERG current change (%, negative = inhibition) at 10uM when you get a moment.
class A
